method-summary: soluble on expression in E. coli; label from the status in PepcDB or PDB records
metric-name: soluble on expression in E. coli

Here is how some sequences turned out for soluble on expression in E. coli.
seq-string	soluble on expression in E. coli
MAHHHHHHMMNMFYRRDFPVSFRYVNDHSKFIGAGSGRGNRKRGMAPNNYTEYLRIMANEANGTGQDTSRVLFIDSEVNYRFTPVQTIVLDAYEPLTRRQQRRLVQQQYSNPFGDVSSRNARRYGAAAARARKMTVRHRAVVSAQHLQDAVDMQQKYTDFLIAEQEGVQLPPEMRNGVQDGHGGDLCHFSKRHPQRSAPSSSSPPHPQQGGSTRGRVSGPLSTPGPSSLADTESDKTPPDGNKDIKEEQQQLSMSCALAVNLEDYSLVALAEMIAEMSASETSVADYIKTEPLIEKVEVPFHGKANYLAPENCDNIDLLNWDEIQVLEKAHGTGVPEMVEETEDHKDFFR	not soluble
MGPTQETYTIVRYQSGTFSKQLDEIVTESPITIKLNGEEYVTVVCTPNYIEDMVIGFLISEGIISSYNDVEELWVQKDNGIVHVKSSKVNPLYQTLYNKRYVTSCCGKGRQGFIFVNDAAKAKDLHDIHVKITPEECFYLMNTLQQSSTTFRQTGGVHNTALCDRNKILLSRMDIGRHNALDKIYGHCLRNDISVKGKIIAFSGRISSEILLKVSKIGCEIVLSKSAPTKLALQLAHDLGITVVGFIRNESCNIYTHPHRIDGYQSNNLEHHHHHH	soluble
MGSDKIHHHHHHMSLKMKLIYVVESSVPYGANKCLIEIIDRLDKDKHEVMVVGADEGALSSWLRERNVSYVSLNHRLSIYPVLNSRKDYLLWLPRLFRRVALNVIAMVKFFKICKRFKPDIVHTNVGPCSLGYFVATYLGIKHVWHVREYQDLDFGMSFFPNRKAFLKRLKRSDAVICITNSIAAHFHLTDNENLAVINDGVISDEKEIDIIQKENYFLFAGRLEAAKGIEEAIESFFEFCETDSSGISFYVAGDGNFNYLKKLKEKVSKSNFSNRVRFLGFRDDIFALMRMAKALVVASRCEGFGLITAEAMYQGTLVIGRDTGGTSEILKDSKGIHYGFLFNSIDELTKLMHEVVDLSPDEYTKMARSAQRRTLDKYTINRNFREISDVYNTLM	not soluble
MGSDKIHHHHHHMTRRAWTLLDGGMGRELKRIGAPFRQPEWSALALFEAPEYVTQVHRAFIAAGARVITTNSYAVVPFHIGEERFARSGRALAELSGRLARGAADEAGASVQVAGSLPPALGSYRPDLFDPARSQAIHRELICGLTPHVDFWLAETQSSLAEARAVHAALDGDGKPLWLSFTLLDPDTEHAVPLLRSGESVQQAVLLALELGASALLFNCSQPESMGAALRSARQVLKQEARELALGVYANAFPPVREDAQANDTLLDIRADLGPEAYLQWAQQWVEEGADIVGGCCGIGPEHIARLDEHLQACKQGME	not soluble

Give soluble on expression in E. coli for each of the items listed below.
1. MCASFSPTLDSRSRQLLRTLISCYIQNGEPIGSKTLAQQAGLDISPATIRNILADLEELGLLNSPHTSAGRVPTAHGYRMFVDSLVQMQPPSEDDIRRLRVEMTGGGTQTLLGSASEILSAMTHFVGVVSAPRREQFVFRHIDFVPLDARQIMAILIFADNEVQNRVIEPRRVYEPGELERVSNYLNAHFIGRTLADIRTTVLCELRKAKDEMEQLLAHSLDLASQMLVPNDSEDIVVTGQTRLMALQDLSDMDRLRELFEIFASKREILQLLERTIDAPGVRIFIGEETGMVSMEDISLVTAPYAAHGQVLGVLGVIGPKRMAYDRVIPLVQVVAQVLGTALEPPTMP
2. MGSDKIHHHHHHMAAKKKSASSRKLNLGCGRDIREGWINLDSMALPGVDVVADLSLCATTPLPFEDSSIDEFLLSHLIEHIPDPLPLMQELWRIAKPGAKMQIRVPHGAHDDAWTNPTHVKPYFARSFGYFSQPWYWRADYGYRGDWQPELVTYSVPRRRFAGQMPAQILEQIDALRNVVQEMIVDLVAVKPLRQPKKDLMQAANIKIALME
3. MKFEDLLATNKQVQFAHAATQHYKSVKTPDFLEKDPHHKKFHNADGLNQQGSSTPSTATDANAASTASTHTNTTTFKRHIVAVDDISKMNYEMIKNSPGNVITNANQDEIDISTLKTRLYKDNLYAMNDNFLQAVNDQIVTLNAAEQDQETEDPDLSDDEKIDILTKIQENLLEEYQKLSQKERKWFILKELLLDANVELDLFSNRGRKASHPIAFGAVAIPTNVNANSLAFNRTKRRKINKNGLLENIL
4. MGHHHHHHSHMGTNDEDELSLGLPTELKRKKEQLDGGHRPSKETQSAAGLTLPLNSDQTFHLMSNLAGDVITAAVTAAIKDQLEGVQQALSQAAPIPEEDTDTEEGDDFELLDQSELDQIESELGLTQDQEAEAQQNKKSSGFLSNLLGGH

["not soluble", "not soluble", "soluble", "soluble"]

I'm hoping you can list soluble on expression in E. coli for every sequence here, please.
1. MTVDDIMVPRSEIIGIDINDDWKSILRQLSHSPHGRIVLYRDSLDDAISMLRVREAWRLMSEKKEFTKETMLRAADEIYFVPEGTPLSTQLVKFQRNKKKVGLVVNEYGDIQGLVTVEDILEEIVGDFTTSMSPTLAEEVTPQNDGSVIIDGTANVREINKAFNWHLPEDDARTVNGVILEALEEIPVAGTRVRIGEYDIDILDVQDNMIKQVKVFPVKPLRESVAELEHHHHHH
2. MKGGAGVPDLPSLDASGVRLAIVASSWHGKICDALLDGARKVAAGCGLDDPTVVRVLGAIEIPVVAQELARNHDAVVALGVVIRGQTPHFDYVCDAVTQGLTRVSLDSSTPIANGVLTTNTEEQALDRAGLPTSAEDKGAQATVAALATALTLRELRAHS
3. SEATKERVGLLDTILPPALADAGLEDCALPPESIQEAFRKAANAVKSRAASIFDHEEEDGCLADPIPETADKIIVGGDNERDTGPCLAGKGIEKLAESKQAGDLVVAGEGEEGKSCVDGLKDLDVEGIERSSEKKDQSDEDEEEEMKPILVEGFV

["soluble", "soluble", "soluble"]
